# target.desc: Pim3 kinase (Homo sapiens (Human))
metric.name: IC50 (nM)

- molecule: "C[C@@H]1C[C@H](N)C[C@H](c2ccncc2NC(=O)c2ccc(F)c(C3CCCCC3)n2)C1 (stereo in doubt) [Example 91]"
  target.desc: "Pim3 kinase (Homo sapiens (Human))"
  measured: 21
- molecule: "C[C@H]1C[C@@H](c2ccncc2NC(=O)c2ccc(F)c(C3CCCCC3)n2)C[C@@H](N)[C@@H]1O (stereo in doubt) [Example 89]"
  target.desc: "Pim3 kinase (Homo sapiens (Human))"
  measured: 29
- molecule: "Cc1ccc(F)c(-c2cccc(C(=O)Nc3cnccc3[C@H]3C[C@@H](N)[C@@H](O)[C@@H](C)C3)n2)c1F [Example 31]"
  target.desc: "Pim3 kinase (Homo sapiens (Human))"
  measured: 4

----------
# target.desc: UniProtKB P11309
# Sequence (P11309 whole entry): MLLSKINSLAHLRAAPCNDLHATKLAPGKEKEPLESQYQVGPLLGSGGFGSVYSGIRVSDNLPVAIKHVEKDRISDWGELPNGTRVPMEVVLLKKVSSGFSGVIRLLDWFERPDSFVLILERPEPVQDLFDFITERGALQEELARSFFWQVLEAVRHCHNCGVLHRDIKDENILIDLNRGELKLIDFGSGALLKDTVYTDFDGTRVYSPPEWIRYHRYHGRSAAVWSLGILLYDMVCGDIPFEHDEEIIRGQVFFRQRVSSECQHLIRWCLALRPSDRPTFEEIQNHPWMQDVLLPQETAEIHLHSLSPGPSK
# particulars: read-out: Pim1 IC50
pIC50: −log10 of the molar value.
Catalogue of compounds with associated pIC50

- compound: "N[C@H]1CCC[C@@H](c2ccncc2NC(=O)c2ccc(F)c(-c3c(F)cc(O)cc3F)n2)C1"
  pIC50: 9.00
- compound: "C[C@@H]1C[C@H](N)C[C@H](c2ccncc2NC(=O)c2nc(-c3c(F)cc(O)cc3F)ccc2F)C1"
  pIC50: 9.00
- compound: "C[C@@H]1C[C@H](N)C[C@H](c2ccncc2NC(=O)c2ccc(F)c(C3CCCCC3)n2)C1 (stereo in doubt)"
  pIC50: 8.52
- compound: "Cc1ccc(F)c(-c2cccc(C(=O)Nc3cnccc3[C@H]3C[C@@H](N)[C@H](O)[C@@H](C)C3)n2)c1F"
  pIC50: 8.70
- compound: "C[C@H]1C[C@@H](c2ccncc2NC(=O)c2ccc(F)c(-c3c(F)cc(O)cc3F)n2)C[C@@H](N)[C@@H]1O"
  pIC50: 9.00
- compound: "C[C@@H]1C[C@H](N)C[C@H](c2ccncc2NC(=O)c2nc(-c3c(F)cccc3F)c(F)cc2N)C1 [Example 51]"
  pIC50: 9.00
- compound: "C[C@H]1C[C@@H](c2ccncc2NC(=O)c2ccc(F)c(-c3cc(O)ccc3F)n2)C[C@@H](N)[C@@H]1O"
  pIC50: 8.52
- compound: "C[C@H]1CN(c2ccncc2NC(=O)c2ccc(F)c(-c3ccccc3F)n2)C[C@@H](N)[C@@H]1O"
  pIC50: 9.00
- compound: "Cc1ccc(F)c(-c2cccc(C(=O)Nc3cnccc3[C@H]3C[C@@H](N)[C@@H](O)[C@@H](C)C3)n2)c1F"
  pIC50: 8.70
- compound: "C[C@@H]1C[C@H](N)C[C@H](c2ccncc2NC(=O)c2ccc(F)c(-c3ccc(O)cc3F)n2)C1"
  pIC50: 9.00
- compound: "C[C@@H]1C[C@H](N)C[C@H](c2ccncc2NC(=O)c2cccc(-c3ccccc3F)n2)C1"
  pIC50: 9.00
- compound: "N[C@@H]1C[C@H](c2ccncc2NC(=O)c2cccc(-c3ccccc3F)n2)CC[C@@H]1O"
  pIC50: 8.40
